ASSAY OVERVIEW: Plasma concentrations following oral administration
Type: in vivo, Sprague-Dawley rats
TEST CONTEXT: Sprague-Dawley, rat, oral 30 mg/kg
ASSAY ENDPOINT: Tmax (h)
Answers are plain numbers, in h.

Form: compound = `CC(=O)N1CCC(N(CC(C)C)N2CCN(C(=O)[C@@H](Cc3ccc(Cl)cc3)NC(=O)C(C)(C)N)CC2)CC1` ; Tmax = 2

###

TARGET ENTITY: MC4r (Homo sapiens)
Sequence (P32245 whole entry): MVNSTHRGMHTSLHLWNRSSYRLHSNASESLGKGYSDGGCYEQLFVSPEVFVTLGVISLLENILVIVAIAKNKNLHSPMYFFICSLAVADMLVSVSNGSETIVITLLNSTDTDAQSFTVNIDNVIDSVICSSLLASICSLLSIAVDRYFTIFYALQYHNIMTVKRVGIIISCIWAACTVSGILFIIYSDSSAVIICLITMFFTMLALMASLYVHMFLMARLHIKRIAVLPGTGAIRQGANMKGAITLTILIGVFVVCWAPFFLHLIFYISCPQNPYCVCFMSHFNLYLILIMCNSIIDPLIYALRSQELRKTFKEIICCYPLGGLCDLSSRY
ASSAY ENDPOINT: pKi
Answers are plain numbers, as −log10 of the molar value.

With MC4r (Homo sapiens) as the test system, CNC(C)(C)C(=O)N[C@H](Cc1ccc(Cl)cc1)C(=O)N1CCN(N(CC(C)C)C2CCN(C(C)=O)CC2)CC1 [Compound 7.9] showed pKi of 8.30

###

TARGET ENTITY: MC4r (Homo sapiens)
ASSAY OVERVIEW: Functional cAMP study in human MC4r expression system approximating maximal physiologic receptor densities
Type: cell-based
Parameters: host or cells: TREx-293 transfected with pcDNA4/TO/MC4R
Description: Assay for Agonist Activity. […] NDP-α-MSH was used as the reference agonist. cAMP levels were determined by an HTRF® cAMP cell-based assay system from Cisbio Bioassays utilizing cryptate-labeled anti-cAMP and d2-labeled cAMP, with plates read on a Perkin-Elmer Victor plate reader at 665 and 620 nM. […]
ASSAY ENDPOINT: EC50 (nM)
Numbers only, in nM.

Form: compound = `CNC(C)(C)C(=O)N[C@H](Cc1ccc(Cl)cc1)C(=O)N1CCN(N(CC(C)C)C2CCN(C(C)=O)CC2)CC1` ; EC50 = 5
